Target: huCD79b-N (human) (UniProt P40259)
Assay: BLI (ForteBio), antibody loaded on sensor, antigen in solution
MEASUREMENT TYPE: Kd (nM)
Reply with just the number (in nM).

{"BINDER": "polmab (antibody, human IgG1, kappa, V domains shown) VH: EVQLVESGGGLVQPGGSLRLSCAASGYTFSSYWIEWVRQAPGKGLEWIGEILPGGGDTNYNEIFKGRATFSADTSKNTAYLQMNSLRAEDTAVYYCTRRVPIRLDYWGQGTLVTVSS VL: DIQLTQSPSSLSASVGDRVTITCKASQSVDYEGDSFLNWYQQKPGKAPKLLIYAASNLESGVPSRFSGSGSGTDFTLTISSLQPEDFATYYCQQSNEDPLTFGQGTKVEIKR", "EXPERIMENTAL VALUE": 3.22}
{"BINDER": "hz38D9B3.11 (antibody, V domains shown) VH: QVQLVQSGSELKKPGASVKVSCKASGYTFTDYSMHWVRQAPGQGLEWMGWINTETGEPSYADDFKGRFVFSLDTSVSTAYLQISSLKAEDTAVYYCYYGPYWGQGTLVTVSS VL: EIVLTQSPATLSLSPGERATLSCKASQSVDHDVDSYMDWYQQKPGQAPRLLIYSASNLESGIPARFSGSGSGTDFTLTISSLEPEDFAVYYCQQINEYPYTFGGGTKVEIK", "EXPERIMENTAL VALUE": 0.275}
{"BINDER": "A7v14b (antibody, V domains shown) VH: EVQLVQSGAEVKKPGASVKVSCKASGYTFTTYYMNWVRQAPGQGLEWIGMIDPSDSETHYNQKFQGRATLTVDTSTSTAYLELSSLRSEDTAVYYCSRSLAFWGQGTLVTVSS VL: DIVMTQTPLSLPVTPGQPASISCKSSQSLLDSDGKTYLNWLLQKPGQSPQSLIYLVSKLDSGVPDRFSGSGSGTDFTLKISRVEAEDVGVYYCWQGTHFPQTFGQGTKVEIK", "EXPERIMENTAL VALUE": 8.56}

Value of Kd reported for the binder hz34F1.14 (antibody, V domains shown) VH: QVQLVQSGAEVKKPGASVKVSCKASGYSFTTYWMNWVRQAPGQGLTWMGMIDPSDSETHYNHLFKDRVTMTVDKSTSTAYMELSSLRSEDTAVYYCTRAIGYWGQGTLVTVSS VL: DVVMTQSPLSLPVTLGQPASISCKSSLSLLDSEGKTYLNWFQQRPGQSPRPLISLVSKLDSGVPDRFSGSGSGTDFTLKISRVEAEDVGVYYCWQGTHFPLTFGGGTKVEIK is 8.07
